- system.name: Beta-galactoside alpha-2,6-sialyltransferase 1 (Rattus norvegicus, UniProt P13721)
- Sequence (P13721 whole entry): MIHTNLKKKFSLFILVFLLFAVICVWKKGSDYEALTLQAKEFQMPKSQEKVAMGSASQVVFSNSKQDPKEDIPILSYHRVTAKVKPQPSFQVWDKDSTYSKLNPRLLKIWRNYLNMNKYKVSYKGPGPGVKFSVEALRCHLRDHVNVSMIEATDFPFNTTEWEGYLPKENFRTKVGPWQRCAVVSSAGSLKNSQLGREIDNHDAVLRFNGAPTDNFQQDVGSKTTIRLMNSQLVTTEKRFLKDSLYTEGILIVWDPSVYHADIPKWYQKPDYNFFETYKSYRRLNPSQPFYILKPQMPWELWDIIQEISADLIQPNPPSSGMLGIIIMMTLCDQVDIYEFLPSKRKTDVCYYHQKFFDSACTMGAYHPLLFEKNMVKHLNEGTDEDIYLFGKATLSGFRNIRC
- protocol.summary: Inhibition of rat liver ST6Gal-1 by HPLC-based assay
measurement.kind: pKi
Answers are plain numbers, as −log10 of the molar value.

State its pKi: CC(=O)N[C@H]1[C@@H](Oc2ccccc2)OC([C@@H](OP(=O)(O)OC[C@H]2O[C@@H](n3ccc(N)nc3=O)[C@H](O)[C@@H]2O)P(=O)(O)O)=C[C@@H]1O
7.54
